test system: NCI-H226 cells; experiment: NCI-H226 proliferation assay (Wuxi AppTec); format: cell-based; details: Homo sapiens, 168 h, 7 days, CellTiter-Glo, top dose 10, 3-fold dilution, 9 doses
# note: exactly 0.03 µM is not below, so it is false; use true for IC50 strictly under it

{"columns": ["molecule", "label"],
 "data": [
  ["C=CC(=O)N1CCC(c2cccnc2Oc2ccc(C(F)(F)F)nc2)CC1 [Example 155]", "true"],
  ["C=CC(=O)N1CCC(c2nccnc2Oc2cnc(C(F)(F)F)nc2)CC1 [Example 91]", "false"],
  ["C=C(F)C(=O)N1CC=C(c2nccnc2Oc2cnc(C(F)(F)F)nc2)CC1 [Example 90]", "false"],
  ["C=CC(=O)N1CC=C(c2nccnc2Nc2ccc(C(F)(F)F)nc2)CC1 [Example 55]", "false"],
  ["C=CC(=O)N1CCC(c2cccnc2Oc2cnc(C(F)(F)F)nc2)CC1 [Example 159]", "false"],
  ["C=CC(=O)N1CCN(c2nccnc2N2CCC(C(F)(F)F)CC2)CC1 [Example 105]", "false"],
  ["C=CC(=O)N1CCN(c2nccnc2Oc2ccc(C(F)(F)F)cn2)CC1 [Example 73]", "false"],
  ["C=C(F)C(=O)N1CC=C(c2nccnc2Oc2ccc(C(F)(F)F)nc2)CC1 [Example 85]", "true"],
  ["C=CC(=O)N1CC=C(c2cccnc2Oc2ccc(C(F)(F)F)nc2)CC1 [Example 153]", "false"],
  ["C=CC(=O)N1CCN(c2nccnc2Nc2ccc(OC(F)(F)F)nc2)CC1 [Example 48]", "false"],
  ["C=CC(=O)N1CCN(c2nc(C)cnc2Nc2ccc(C(F)(F)F)cc2)CC1 [Example 112]", "true"],
  ["C=CC(=O)N1CCC(c2nccnc2Nc2ccc(C(F)(F)F)cc2)CC1 [Example 26]", "true"],
  ["C=CC(=O)N1CCN(c2nccnc2Oc2cnc(C(F)(F)F)nc2)CC1 [Example 87]", "false"],
  ["C=C(F)C(=O)N1CC=C(c2nccnc2Nc2cnc(C(F)(F)F)nc2)CC1 [Example 60]", "false"],
  ["C=CC(=O)N1CCN(c2nccnc2Nc2ccc(OC(F)F)nc2)CC1 [Example 49]", "false"],
  ["C=CC(=O)N1CCN(c2nccnc2Oc2ccc(OC(F)F)cc2)CC1 [Example 71]", "true"],
  ["C=CC(=O)N1CC=C(c2nccnc2Nc2cnc(C(F)(F)F)nc2)CC1 [Example 59]", "false"],
  ["C=C(F)C(=O)N1CCC(c2nccnc2Oc2cnc(C(F)(F)F)nc2)CC1 [Example 92]", "false"],
  ["C=CC(=O)N1CCN(c2nc(C)c(C)nc2Nc2ccc(C(F)(F)F)nc2)CC1 [Example 113]", "false"],
  ["C=CC(=O)N1CCC(O)(c2nccnc2Oc2ccc(C(F)(F)F)nc2)CC1 [Example 83]", "false"],
  ["C=CC(=O)N1CCN(c2nccnc2OC2CCC(C(F)(F)F)CC2)CC1 (centres unmarked) [Example 94]", "true"],
  ["C=CC(=O)N1CCC(n2nccc2C(=O)c2ccc(C(F)(F)F)cc2)CC1 [Example 164]", "false"],
  ["C=CC(=O)N1CCN(c2nccnc2Nc2ccc(C#N)cc2)CC1 [Example 38]", "false"],
  ["C=CC(=O)N1CCN(c2nccnc2Nc2cnc(C(F)(F)F)c(F)c2)CC1 [Example 50]", "true"],
  ["C=CC(=O)N1CC=C(c2nccnc2Oc2ccc(C(F)(F)F)cn2)CC1 [Example 74]", "false"],
  ["C=CC(=O)N1CCN(c2nccnc2Nc2ccc(S(F)(F)(F)(F)F)cc2)CC1 [Example 31]", "true"]
]}

The reported measurements were obtained from patent US20250206722A1.
